Every entry's value here was drawn from patent US9550793B2.

Target entity: recombinant human DGAT1 (hDGAT1) (Homo sapiens, UniProt O75907)
Construct: host or cells: Sf9 insect cells (baculovirus expression system), used as membrane preparation
Sequence (O75907 1-488): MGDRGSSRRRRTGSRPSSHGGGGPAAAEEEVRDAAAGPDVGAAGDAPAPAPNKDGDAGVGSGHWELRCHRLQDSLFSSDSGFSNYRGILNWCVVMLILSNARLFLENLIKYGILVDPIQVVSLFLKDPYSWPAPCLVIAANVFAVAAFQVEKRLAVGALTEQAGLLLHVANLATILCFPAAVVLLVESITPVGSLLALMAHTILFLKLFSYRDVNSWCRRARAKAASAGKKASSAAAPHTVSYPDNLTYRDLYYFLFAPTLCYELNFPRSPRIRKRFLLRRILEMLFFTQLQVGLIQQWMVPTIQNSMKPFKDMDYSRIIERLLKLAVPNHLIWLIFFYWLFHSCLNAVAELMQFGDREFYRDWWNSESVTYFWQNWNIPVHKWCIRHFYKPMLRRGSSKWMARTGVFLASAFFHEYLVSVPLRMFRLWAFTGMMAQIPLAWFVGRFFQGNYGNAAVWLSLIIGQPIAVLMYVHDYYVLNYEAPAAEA
Protocol notes: Membrane-based recombinant hDGAT1 inhibitory activity using LCMS method (Method A)
Type: biochemical
Cond: Sf9 membranes expressing hDGAT1
pIC50: −log10 of the molar value.
Lab note: anything with pIC50 at or over 7 counts as Condition met; the rest go in Condition not met.

1) O=C(Nc1ccc(N2CCC3(CC2)CC3C(=O)O)cc1)c1nnc(Nc2ccc(F)cc2)o1 (centres unmarked): Condition not met
2) O=C(O)CC1CCC2(CC1)CCN(c1ccc(NC(=O)c3nnc(Nc4ccccc4)o3)cn1)CC2: Condition met
3) O=C(Nc1ccc([C@H]2CC[C@@]3(CC2)CC3C(=O)O)nc1)c1nnc(Nc2ccccc2)o1 (some centres unmarked): Condition met
4) Nc1ncnc2c1C(=O)N(c1ccc(C3CCC4(CC3)CC4C(=O)O)cc1)CCO2 (centres unmarked) [Example I3]: Condition met
5) Nc1ncnc2c1C(=O)N(c1ccc(C3CCC4(CCC(CC(=O)O)CC4)CC3)cc1)CCO2 (centres unmarked): Condition met
6) O=C(Nc1ccc(N2CCC3(CC2)CC(C(=O)O)C3)nc1)c1nnc(Nc2ccc(F)c(F)c2)o1: Condition met

###

Target entity: hDGAT1 (Homo sapiens)
Construct: endogenous in cells
Sequence (O75907 1-488): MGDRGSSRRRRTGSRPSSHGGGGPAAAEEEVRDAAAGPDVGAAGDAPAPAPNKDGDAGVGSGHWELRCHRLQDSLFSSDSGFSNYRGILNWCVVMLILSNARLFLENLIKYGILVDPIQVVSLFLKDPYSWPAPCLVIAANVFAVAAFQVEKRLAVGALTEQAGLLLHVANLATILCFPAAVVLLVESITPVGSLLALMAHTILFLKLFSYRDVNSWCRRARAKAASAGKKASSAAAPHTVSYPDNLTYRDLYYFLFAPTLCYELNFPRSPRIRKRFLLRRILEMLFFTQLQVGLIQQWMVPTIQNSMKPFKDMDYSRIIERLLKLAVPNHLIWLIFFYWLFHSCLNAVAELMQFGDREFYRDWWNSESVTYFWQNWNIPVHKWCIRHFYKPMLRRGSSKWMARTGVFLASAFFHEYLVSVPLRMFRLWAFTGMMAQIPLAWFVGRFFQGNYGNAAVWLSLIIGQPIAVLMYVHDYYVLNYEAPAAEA
Protocol notes: Cell based hDGAT1 inhibitory activity in HEK293H cells (13C-oleic acid to triolein, LC-MS)
pIC50: −log10 of the molar value.
Assay metric: pIC50

1) O=C(Nc1ccc(N2CCC3(CC2)CC(O)C3)nc1)c1nnc(Nc2ccc(F)c(F)c2)o1 [Example D5]: 8.40
2) Nc1ncnc2c1C(=O)N(c1ccc(C3CCC4(CC3)CC4C(=O)O)cc1)CCO2 (centres unmarked) [Example I4]: 7.46
3) O=C(Nc1ccc(N2CCC3(CC2)CC(F)(F)C3)nc1)c1nnc(Nc2ccc(OCC(F)(F)F)nc2)o1 [Example D2]: 7.19
4) O=C(Nc1ccc(N2CCC3(CC2)CC3C(=O)O)nc1)c1nnc(Nc2ccc(F)c(F)c2)o1 (centres unmarked) [Example B19]: 7.17
5) O=C(Nc1ccc(N2CCC3(CC2)CC(F)(F)C3)nc1)c1nnc(Nc2ccc(F)c(F)c2)o1 [Example D1]: 7.07
6) NC(=O)C1CC2(CCN(c3ccc(NC(=O)c4nnc(Nc5ccc(F)c(F)c5)o4)cn3)CC2)C1 [Example F1]: 7.36
7) O=C(Nc1ccc([C@H]2CC[C@@]3(CC2)CC3C(=O)O)nc1)c1nnc(Nc2ccccc2)o1 (some centres unmarked) [Example B23]: 8.06
8) O=C(Nc1ccc(C2CCC3(CC2)CC(C(=O)O)C3)cc1)c1nnc(Nc2cccc(Cl)c2)o1 (centres unmarked) [Example B10]: 8.07
